Values compiled from the DeepSol protein solubility set.

Assay: soluble on expression in E. coli; label from the status in PepcDB or PDB records
outcome measure: soluble on expression in E. coli

construct_sequence=MGHHHHHHSHLEDFFKNMVKSADGVIVSGVKDVDDFFEHERTFLLEYHNRVKDASAKSDRMTRSHKSAADDYNRIGSSLYALGTQDSTDICKFFLKVSELFDKTRKIEARVSADEDLKLSDLLKYYLRESQAAKDLLYRRSRSLVDYENANKALDKARAKNKDVLQAETSQQLCCQKFEKISESAKQELIDFKTRRVAAFRKNLVELAELELKHAKGNLQLLQNCLAVLNGDT outcome_measure="soluble on expression in E. coli" experimental_result="not soluble"
construct_sequence=MGHHHHHHSHMVSPSKAVIVPGKIGGDETTHGWYGWVKKELEKIPGFQCLAKNMPDPITARESIWLPFMETELHCDEKTIIIGHSSGAIAAMRYAETHRVYALILVSAYTSEFGDENERASGYFSRPWQWEKIKANCPHIVQFGSTDDPFLPWKEQQEVADSWTPNCTNSLTVVTFRTQSSMN outcome_measure="soluble on expression in E. coli" experimental_result="not soluble"

---

Assay: soluble on expression in E. coli; label from the status in PepcDB or PDB records
outcome measure: soluble on expression in E. coli

construct_sequence=MAKQRVFIAGHRGMVGSAIRRQLEQRGDVELVLRTRDELNLLDSRAVHDFFASERIDQVYLAAAKVGGIVANNTYPADFIYQNMMIESNIIHAAHQNDVNKLLFLGSSCIYPKLAKQPMAESELLQGTLEPTNEPYAIAKIAGIKLCESYNRQYGRDYRSVMPTNLYGPHDNFHPSNSHVIPALLRRFHEATAQKAPDVVVWGSGTPMREFLHVDDMAAASIHVMELAHEVWLENTQPMLSHINVGTGVDCTIRELAQTIAKVVGYKGRVVFDASKPDGTPRKLLDVTRLHQLGWYHEISLEAGLASTYQWFLENQDRFRG outcome_measure="soluble on expression in E. coli" experimental_result=soluble
construct_sequence=GHMSESREARLIIFHAGSLSIPLSQVEEKFTKYAQEKLGVKVTFQDEASGSVKAVRKVTDLKKRADIVAVADYTLIPQLMIPNYTDFYVLFATNEIVIAFTNKSKYADEMLKNPDKWYEILSRPDVSFGFSDPNQDPCGYRSVMVMKLAELYYGRPIFKELVEKTTNIYSNGTRIYAPKEIIIKDKRVIMRPKETDLVGLVESGSLDYIFIYKSVAKQHHLSYITLPDDINLGDFNKADFYGRVSITLGSTGKTIKAKPIVYGITVLKNAPNRELAIEFLRFLLGNEGRKIFEDNYQEFLSPPVAFGNVPPEIRRLVEVK outcome_measure="soluble on expression in E. coli" experimental_result=soluble

---

Experiment: soluble on expression in E. coli; label from the status in PepcDB or PDB records
outcome measure: soluble on expression in E. coli

construct_sequence=MSLEISKQTSDLLLSLEKKKGTLPKFSVLRSIPRNRIIYGAPGTGKSNYLEREVGKIFGDNPYVFTRVTFFPGYTYGQFIGAYKPVPIYKKLSGEEEIFSSNFRDKMENFEPMIDYQFVPGPFIDVLIKALKNRYTNFILIIEEINRANAASVFGDIFQLLDRNKNGESDYPVTFGPDIMNYLARNGIKDEMIKLPSNFFIWATMNNADQGVLPLDTAFKRRWSFEYLELEKYRKAVDSWKLSLRYKGHNKVIMWNDFRDIINKRLKGKVPEDKLLGPFFLKESELWNQNVFKNKLLYYLKEDVFKHNPTIDFLNASTFSELIEKYDGSDNIFTFDIDDSSFVSDEGGSHHHHHH experimental_result=soluble
construct_sequence=MGHHHHHHSHMPQFSPSYSFPVQIYYEDTDFSGVVYHPNFLKYFERAREHVIGAEQLRNLWQQQQLGFAVYRSDMLCHEGVEFADIIDIRTKFYFESKYRTVWHQEIWRPNGKKPAVTATIEMVCMNQARQLAPMPAELITQLSLGM experimental_result=soluble
construct_sequence=GPGSMGRQKSRNLWNDGEGTKSVCRPQQVTVAKGWRVTPDLLPAKPLAPRRRKYAPIRPNNRDAVAIPLGGQSYNPLDEEHQEALAKAVRQLSKKKLKDEKFVKMMTMGRDKKYTGNLSADKTWEEEVQETEPATAKTPKKKRTKTAPASTGASSSAPSSAPSPVTHNGNKAKHEKVAAAPAAVAKNGKTAKKQKKKTKKATAEEAKRAMTHRRHPKRGVVAKETDELDVLLAAHKATACKREVARQKRRAAKKANLAIKHYGRHYHTPLVLDVTPSDKLVGSLRHLSGGYVHPALERMKSLEERNLVPARMRHTYNKRKVLKPKGEVRVKREEFGVMPMTGF experimental_result=soluble

---

Assay: soluble on expression in E. coli; label from the status in PepcDB or PDB records
outcome measure: soluble on expression in E. coli

construct_sequence=MIDLAKDHLKKVLSLCGANRDCEYYPCHYENQSCLWCYCPFYPCEDENLGEFVKRKDGSLIWSCMKCNWIHKPEIASEVLKEITELTKDKKINDSIEFIDNHEILMNIKRRVEEKLGKDNSV outcome_measure="soluble on expression in E. coli" experimental_result="not soluble"
construct_sequence=MGHHHHHHGGHMSLNTISSLETTDLPAAYHIEQRAHAFPWSEKTFASNQGERYLNFQLTQNGKMAAFAITQVVLDEATLFNIAVDPDYQRQGLGRALLEHLIDELEKRGVATLWLEVRASNAAAIALYESLGFNEATIRRNYYPTTDGREDAIIMALPISMEGGS outcome_measure="soluble on expression in E. coli" experimental_result=soluble
construct_sequence=MGGVMSYFRGLFGAREMRILILGLDGAGKTTILYRLQVGEVVTTIPTIGFNVEQVEYKNLKFQVWDLGGQTSIRPYWRCYYANTDAIIYVVDSADRDRVGISRQELATMLQEDELQGAVLAVLANKQDIAGCLTETEVYKALGLDALRNRTIQIFKTSASKGEGLDPAMDWLANQLQQKK outcome_measure="soluble on expression in E. coli" experimental_result="not soluble"
construct_sequence=MRQDDLKLLGKIVTTHGIRGQLKVASFSGEFDTILSLETVVLKGKDGRMETFPVARATVHHDRVLLSLTPFTNINEVLHLISAVSYAHRDQFPPLEEGEYYWCDLIGLQVVTAAGTVIGRLDSILPTESHDVYVVRGADREYLIPAVEDVVVQVDLEAGTMTVSPPEGLLDLLEHHHHHH outcome_measure="soluble on expression in E. coli" experimental_result=soluble

---

Test: soluble on expression in E. coli; label from the status in PepcDB or PDB records
outcome measure: soluble on expression in E. coli

construct_sequence=MCSLLKLLKISGKSVSDDDPIERYIKCEQCKCKRHWVEQLQRDEMDQMLHRLQFENKQLRKELEWKRGAASTMEIDRSSKRHQERHQSESRGGTLPLRNGRSVVSLKSTQSQNDVMDEAKALRLHKQRLEHRSRILEQQNEQLEMQLQRLKKVIDAQKQQAPLSTNSLLRGSHHQPWSPERARSGSASTLDRGLIVSSRHQEQAEAAGGGAEDSSDEAGGAGGGPRGSSVGQMQNLMTACDDLGKAMESLVVSVVYDSDDEEND experimental_result="not soluble"
construct_sequence=MSLQTQDIIRRSGTNSLTPPPQVRDHQEPVAKLIDVTTCIGCKACQVACSEWNDIRDEVGHNVGVYDNPADLTAKSWTVMRFSEVEDEESGKLEWLIRKDGCMHCADPGCLKACPSEGAIIQYANGIVDFQSEHCIGCGYCIAGCPFDVPRMNKDDNRVYKCTLCVDRVGVGQEPACVKTCPTGAIHFGTKESMKEVAAGRVAELKTRGFDNAGLYDPAGVGGTHVMYVLHHADKPQLYHGLPENPTISPTVTFWKGIWKPLAAVGFAATFAASIFHYVGVGPNRVEEEEEDDETTDPTPSETVAKAPEQTTSERSDEGETRK experimental_result="not soluble"
construct_sequence=MGDAPSPEEKLHLITRNLQEVLGEEKLKEILKERELKIYWGTATTGKPHVAYFVPMSKIADFLKAGCEVTILFADLHAYLDNMKAPWELLELRVSYYENVIKAMLESIGVPLEKLKFIKGTDYQLSKEYTLDVYRLSSVVTQHDSKKAGAEVVKQVEHPLLSGLLYPGLQALDEEYLKVDAQFGGIDQRKIFTFAEKYLPALGYSKRVHLMNPMVPGLTGSKMSSSEEESKIDLLDRKEDVKKKLKKAFCEPGNVENNGVLSFIKHVLFPLKSEFVILRDEKWGGNKTYTAYVDLEKDFAAEVVHPGDLKNSVEVALNKLLDPIREKFNTPALKKLASAAYPDPSKQKPMAKGPAKNSEPEEVILEHHHHHH experimental_result=soluble
construct_sequence=MAHHHHHHMGLEIFEIDTSTPHTGVVIDGTTACREANSGWVTLRAKTPLSAGQCQWAMKVIDQGEGNDGSGLMMGLLPRLNSQQEVAMGSKYISELGGWCLSRAGDSYGCWKCDKMPFSTGCVVEFDWDAASRTLYIVSGKRKASGHIPNVSEADVVYPAFSMFYLNQKLAFV experimental_result=soluble
construct_sequence=MKKFCLSYSSGKDCLLAMDRLVQAGNQPVALVTTLSDEINRSWFHGIPISVLEAAAEALDLPLVISHNNETNYTEKVVEALQETKKLGAETVCFGDIDIEQNGAWDRQVALSAGLEPQLPLWQENREALVKEFLAKGYTAIIKTVSKEAGIPIKFLGEPLNETFITYLKEHQLDICGENGEYHTLVIDGPLFKKRLNYYTSGIYESPYAYSLIIDA experimental_result="not soluble"
construct_sequence=MGSDKIHHHHHHLEELDQMRAVFGTRPWREPTDTPAVISVSNFKGGVGKSTVALHLAQHFAIHGYRVLFIDCDSQASSTMMFGYRPDVDLTEDDTLYGHFHNPELLGVRSIIRKTHFFGLDLIPANLKLYNLEYEIAGYLAQNQNFDIIDLIAEAIDTVVDDYDVVVMDPPPALGMVSMAVLQAANAMVIPVPPSVIDFASTVSFIDMARTTMKQLEQIAGRVKPAYNFIRLVGSRVDESKSMHREILSMMRQVFGGSMATSVLKTSAEIDNASSRMKTVFELDRPVTSHEVHNRCMKHLSDVCREIETDVLRTWASRAGEAV experimental_result="not soluble"
construct_sequence=MAPRKKVNEMVIRKTANLTDKMRKERTVEEFEEVKTAQSKSYESDTSSAESLRQKRTAPSAIRTVQIQKEIVLPYDGNLVSVYEKSSNTRSLDTISEPGDLEEFKKKAEESKYVGPQIVPMKFVTTDVETPVKAIFVSDFDFCQAMHHPPQSSTQSKKVEFSKRFEVEQKFLEEMVADIEKLIVSSGRMDVELKVVKAREENDSPRAKISLVRKIHAEKVDDNLNNQAGLVGFILPDLEMKDHGIPLKITKNQQVPSGQKMFESFKRLFGY experimental_result="not soluble"
construct_sequence=MPVIPKSGRLAAVGVLGRIVDVLMRLSLLIRGAVPGGVAAAAATRYRDRIDTGTTATYYGRVVREGGYVVLQYWFFYAMNDWRSVYGGVNDHEADWEKVTVYLVEEENGEYRPVWVGASSHEYLGDDLRRRWDDPELHRDGNHPIIYVGAGSHSHQMLPGDYLIQVDPAFLRGVLRAWRRFTARFLPSSSRLRGIGVPFVDYARGDGVRVGPGGERTWTPVLIDDTTPWVRGYRGLWGRNTRDWFDGERAPSGPRYERLEHHHHHH experimental_result=soluble
construct_sequence=MGSDKIHHHHHHLGFILDKSGLIPPSIDFPELIKAGREQLHRETDYEQEARHLDMFFKLMAGDKCFEVPRINQEFTTDKTLAMEFKEGVTIDQIVSANYNVKNKAVLNLIDLFFRELFEFNLIQSDPNYANFLFDEKNGKIILLDFGATIPVSSDTLAKFKALFNETLGQNKKSVENAMYQLGILDKGLPSHILNELTDIYWDSTEPIRKNKMFDFGNSNILERMQELSSEIIVHRKKIKIPPFDILSIQRKIGGIFLLARRFEAKINLNKIFEK experimental_result="not soluble"
construct_sequence=MGSDKIHHHHHHMPHSVPPLTDIGPLPTASTVRTVVFSDFDETYLAHSGTPEQVRSRQALENYLEDAGERHGLLFGWVTGSSLSSVLGKARRHGLRFLPHFIACSLGTELHVISEAGIQPEPGWQRRMLTTGEHLEGLAEEAFRELRTRGVPLVPQSCRAPGSRVISYYYFAQDPERDARQLALIRRTADRLSLGVNLSRCNPAAGDPDDCYDVDFLPRDCGKRHIVEYICRLYAVSEADAFAFGDSGNDLEMLTAVGRGLLVGNCTEEARARYPQVSARSHADAILSELRGVLP experimental_result="not soluble"
